src = patent US20240309087A1

- tested target: T1, human CD112R on Jurkat CD112R effector cells (human, UniProt Q6DKI7 1-326)
- T1 sequence (looked up): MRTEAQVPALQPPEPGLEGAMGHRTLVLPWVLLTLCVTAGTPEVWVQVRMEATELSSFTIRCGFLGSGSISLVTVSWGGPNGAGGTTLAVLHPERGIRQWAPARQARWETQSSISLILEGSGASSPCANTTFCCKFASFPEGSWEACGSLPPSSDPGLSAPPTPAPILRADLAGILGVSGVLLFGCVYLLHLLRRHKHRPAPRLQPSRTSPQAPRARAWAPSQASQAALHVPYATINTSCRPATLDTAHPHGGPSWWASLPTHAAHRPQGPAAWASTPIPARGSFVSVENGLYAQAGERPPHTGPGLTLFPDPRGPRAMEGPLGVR
- assay name: cell-based or functional assay
Property: EC50, CD112R/CD112 reporter; scope: individual binders
Report only the number, with the unit µg/mL understood.

Solved entries:
binder="Hu34 (antibody, IgG4, V domains shown, humanized IgG4) VH: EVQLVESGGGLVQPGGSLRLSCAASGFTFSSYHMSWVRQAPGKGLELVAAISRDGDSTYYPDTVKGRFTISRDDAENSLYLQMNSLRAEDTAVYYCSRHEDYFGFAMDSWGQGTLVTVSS VL: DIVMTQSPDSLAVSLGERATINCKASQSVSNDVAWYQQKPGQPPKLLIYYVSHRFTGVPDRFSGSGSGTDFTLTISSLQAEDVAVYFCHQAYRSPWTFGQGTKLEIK" value_units=µg/mL data_value=0.0336
binder="Hu43 (antibody, IgG4, V domains shown) VH: EVQLVESGGGLVKPGGSLRLSCAASGFTFSSYHMSWVRQAPGKGLELVSAINSNVISTYYLDTVKGRFTISRDNAKNSLYLQMNSLRAEDTAVYYCARHEDYYGFAMDYWGQGTLVTVSS VL: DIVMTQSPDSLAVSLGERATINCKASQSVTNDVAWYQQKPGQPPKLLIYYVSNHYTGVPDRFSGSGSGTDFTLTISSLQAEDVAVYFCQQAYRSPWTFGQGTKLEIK" value_units=µg/mL data_value=0.0426

Kindly consider the entry below.
Given the entry Hu19 (antibody, IgG4, V domains shown, humanized IgG4) VH: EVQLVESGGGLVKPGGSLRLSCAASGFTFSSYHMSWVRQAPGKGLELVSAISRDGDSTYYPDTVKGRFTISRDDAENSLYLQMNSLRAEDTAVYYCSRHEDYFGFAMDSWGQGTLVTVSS VL: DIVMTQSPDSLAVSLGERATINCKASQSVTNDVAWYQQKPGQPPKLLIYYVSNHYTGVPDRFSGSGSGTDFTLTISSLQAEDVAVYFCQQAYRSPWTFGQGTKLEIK , report its measured EC50, CD112R/CD112 reporter. 0.0404
